# assayTarget: human HAQ isoform of STING (THP-1 STING Lucia ISG cells) (Homo sapiens (Human), UniProt Q86WV6, G230A/H232R/R293Q/R71H)
# Sequence (Q86WV6 whole entry R71H/G230A/H232R/R293Q, canonical isoform): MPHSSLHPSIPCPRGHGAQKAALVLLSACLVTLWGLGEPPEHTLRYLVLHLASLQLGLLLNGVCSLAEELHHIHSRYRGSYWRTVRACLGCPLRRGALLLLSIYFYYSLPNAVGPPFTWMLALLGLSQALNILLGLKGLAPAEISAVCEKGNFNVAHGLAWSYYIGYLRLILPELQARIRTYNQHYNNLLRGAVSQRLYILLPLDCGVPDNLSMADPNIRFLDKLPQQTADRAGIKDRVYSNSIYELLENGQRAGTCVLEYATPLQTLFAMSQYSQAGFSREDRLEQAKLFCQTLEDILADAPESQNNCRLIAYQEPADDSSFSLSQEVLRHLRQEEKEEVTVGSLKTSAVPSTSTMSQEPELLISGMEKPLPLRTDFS
# procedureText: THP-1 STING Lucia ISG reporter cell line assay
# experimentalSetup: 24 h incubation, QUANTI-Luc luminescence
pEC50: −log10 of the molar value.
Please mark true if the recorded pEC50 is equal to or greater than 6, and false if it falls below.

Some entries whose results are on file:
COc1c(C(N)=O)ccc2c1nc(-c1c(F)cc(F)cc1-c1n[nH]c(=O)o1)n2CCn1c(-c2c(F)cc(F)cc2-c2n[nH]c(=O)o2)nc2c(OC)c(C(N)=O)ccc21 true
COc1c(C(N)=O)ccc2c1nc(-c1ccc(Cl)cc1-c1cn[nH]n1)n2CCn1c(-c2ccc(Cl)cc2-c2cn[nH]n2)nc2c(OC)c(C(N)=O)ccc21 false
COc1c(C(N)=O)ccc2c1nc(-c1c(F)cccc1-c1nn[nH]n1)n2CCn1c(-c2c(F)cccc2-c2nn[nH]n2)nc2c(OC)c(C(N)=O)ccc21 true
COc1c(C(N)=O)ccc2c1nc(-c1cc(Cl)ccc1C(=O)O)n2CCn1c(-c2cc(Cl)ccc2C(=O)O)nc2c(OC)c(C(N)=O)ccc21 false
COc1c(C(N)=O)ccc2c1nc(-c1cc(C)ccc1C(=O)O)n2CCn1c(-c2cc(C)ccc2C(=O)O)nc2c(OC)c(C(N)=O)ccc21 false
COc1c(C(N)=O)ccc2c1nc(-c1ccc(Cl)cc1-c1noc(=O)[nH]1)n2CCn1c(-c2ccc(Cl)cc2-c2noc(=O)[nH]2)nc2c(OC)c(C(N)=O)ccc21 false
COc1c(C(N)=O)ccc2c1nc(-c1ncc(Cl)cc1C(=O)O)n2CCn1c(-c2ncc(Cl)cc2C(=O)O)nc2c(OC)c(C(N)=O)ccc21 false
COc1c(C(N)=O)ccc2c1nc(-c1ccc(Cl)c(Cl)c1-c1nn[nH]n1)n2CCn1c(-c2ccc(Cl)c(Cl)c2-c2nn[nH]n2)nc2c(OC)c(C(N)=O)ccc21 false

Note: attention shifts to another entry.
Ask: Test whether the compound "COc1c(C(N)=O)ccc2c1nc(-c1c(C(=O)O)ccc(Cl)c1F)n2CCn1c(-c2c(C(=O)O)ccc(Cl)c2F)nc2c(OC)c(C(N)=O)ccc21" records pEC50 of 6 or higher.
Reply: false

Reference source for all entries: patent US12415785B2
